- assay_summary: AUC (0 to time) in Balbc mouse at 1 mg/kg, ip
- Format: ADME, organism-based
- Parameters: dose 1 mg/kg, route intraperitoneal
- run_parameters: plasma
outcome_measure: AUC (ng·h/mL)
Answer in ng·h/mL, number only, no unit symbol.

query: Provide measured AUC value, entry: "CCCc1nn(C)c2c(=O)[nH]c(-c3cc(S(=O)(=O)NCCCCCCO)ccc3OCC)nc12"
result: 69.4

----------
- assay_summary: Lipophilicity, log P of the compound
- Format: physicochemical
- run_parameters: octanol/water
// values below are reported logP

>>> experimental_result("CCCc1nn(C)c2c(=O)[nH]c(-c3cc(S(=O)(=O)NCCCCCCO)ccc3OCC)nc12")
2.73

query: Please list logP recorded for the molecule "CCCc1nn(C)c2c(=O)[nH]c(-c3cc(S(=O)(=O)N4CCN(C)CC4)ccc3OCC)nc12"
result: 2.58

----------
- assay_summary: Apparent oral volume of distribution in Balbc mouse at 1 mg/kg, iv
- Type: ADME, organism-based
- Design: dose 1 mg/kg, route oral
- run_parameters: in vivo
outcome_measure: Vd/F (L/kg)
The response must be a number in L/kg with no trailing unit.

query: Give the reported value of Vd/F for this record: "CCCc1nn(C)c2c(=O)[nH]c(-c3cc(S(=O)(=O)NCCCCCCO)ccc3OCC)nc12"
result: 1.65

----------
- system_tested: cGMP-specific 3',5'-cyclic phosphodiesterase (Homo sapiens)
- assay_summary: Inhibition of PDE5A1 (unknown origin)
outcome_measure: pIC50
Give only the number. pIC50 is defined as minus log10 of concentration in molar units.

query: Provide pIC50, tested on cGMP-specific 3',5'-cyclic phosphodiesterase (Homo sapiens), for "CCCc1nn(C)c2c(=O)[nH]c(-c3cc(S(=O)(=O)NCCCCCCO)ccc3OCC)nc12" .
result: 8.82

----------
- system_tested: UniProtKB O60658
- Sequence (O60658 whole entry): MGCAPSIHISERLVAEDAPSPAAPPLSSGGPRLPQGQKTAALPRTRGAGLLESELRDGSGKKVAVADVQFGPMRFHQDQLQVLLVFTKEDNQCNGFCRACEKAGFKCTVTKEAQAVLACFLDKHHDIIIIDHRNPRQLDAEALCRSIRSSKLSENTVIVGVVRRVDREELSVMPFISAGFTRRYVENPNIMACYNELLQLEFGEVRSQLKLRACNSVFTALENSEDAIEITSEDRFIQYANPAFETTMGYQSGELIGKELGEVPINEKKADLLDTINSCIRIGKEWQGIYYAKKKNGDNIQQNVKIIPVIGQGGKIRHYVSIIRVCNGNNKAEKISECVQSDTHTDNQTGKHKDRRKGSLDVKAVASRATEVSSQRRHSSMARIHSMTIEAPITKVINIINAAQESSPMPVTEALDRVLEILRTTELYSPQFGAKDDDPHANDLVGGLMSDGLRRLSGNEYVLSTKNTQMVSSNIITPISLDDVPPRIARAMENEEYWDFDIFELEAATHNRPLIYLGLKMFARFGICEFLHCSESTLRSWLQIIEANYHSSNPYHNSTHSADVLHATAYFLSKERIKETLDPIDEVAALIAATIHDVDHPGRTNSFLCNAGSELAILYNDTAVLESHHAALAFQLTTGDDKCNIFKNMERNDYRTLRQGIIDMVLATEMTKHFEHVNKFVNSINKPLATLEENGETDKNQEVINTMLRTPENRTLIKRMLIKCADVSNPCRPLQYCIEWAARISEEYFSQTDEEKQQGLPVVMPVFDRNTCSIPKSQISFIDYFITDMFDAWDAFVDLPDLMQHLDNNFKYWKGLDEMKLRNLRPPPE
- assay_summary: Inhibition of GST-tagged recombinant human PDE8A1
pIC50: −log10 of the molar value.
outcome_measure: pIC50

query: Dear colleague, please send me the reported pIC50 for "CCCc1nn(C)c2c(=O)[nH]c(-c3cc(S(=O)(=O)NCCCCCCO)ccc3OCC)nc12" when you can.
result: < 5.00

----------
- assay_summary: Tmax in Swiss mouse at 10 mg/kg, po
- Assay type: ADME, organism-based
- Set-up: dose 10 mg/kg, route oral
- run_parameters: in vivo
outcome_measure: Tmax
Kindly report the value followed by its unit.

query: Identify measured Tmax associated with "CCCc1nn(C)c2c(=O)[nH]c(-c3cc(S(=O)(=O)NCCCCCCO)ccc3OCC)nc12"
result: 4.98 min
